Tested on: BT474
Experiment: CDI of example compounds and Lapatinib (ATPlite cell survival)
Format: cell-based
Parameters: key: CDI = AB/(A×B); <1 synergistic
Conditions: compound 5 μM + Lapatinib 1 μM, 72 h; Lapatinib-sensitive human breast cancer cells; CDI<1 synergistic, <0.7 very significant, >1 antagonistic
Assay metric: CDI of example compounds and Lapatinib, BT474
Give the figure by itself; no unit, no explanation.

Item: COc1ccc(NC(=S)NC(NC(=O)/C=C/c2cc(OC)c(OC)c(OC)c2)C(C)C)cc1 (stereo not drawn) | CDI of example compounds and Lapatinib, BT474: 1.02

Item: CNC(=S)NC(CC(C)C)NC(=O)/C=C/c1cc(OC)c(OC)c(OC)c1 (stereo not drawn) | CDI of example compounds and Lapatinib, BT474: 1.03

Item: COc1cc(/C=C/C(=O)NC(NC(=S)Nc2ccccn2)C2CC2)cc(OC)c1OC (stereo not drawn) | CDI of example compounds and Lapatinib, BT474: 0.94

====

Tested on: SK-BR3
Assay: CDI of example compounds and Lapatinib (ATPlite cell survival)
Assay type: cell-based
Parameters: key: CDI = AB/(A×B); <1 synergistic
Settings: compound 5 μM + Lapatinib 1 μM, 72 h; Lapatinib-sensitive human breast cancer cells; CDI<1 synergistic
Text: Cells: (BT474 and SK-BR3 are Lapatinib-sensitive human breast cancer cell strains; BT/LapR and SK/LapR are secondary Lapatinib-resistant human breast cancer cell strains upon Lapatinib stimulation; MDA-MB-361 and MDA-MB-453 are natural Lapatinib-resistant human breast cancer cell strains. BT474, MDA-MB-361, SK-BR3 and MDA-MB-453 are from American Type Culture Collection (ATCC)) […]
Assay metric: CDI of example compounds and Lapatinib, SK-BR3
Give the figure by itself; no unit, no explanation.

Item: CC(C)CC(NC(=O)/C=C/c1ccccc1)NC(=S)NC1CCCCC1 (stereo not drawn) [Example 54] | CDI of example compounds and Lapatinib, SK-BR3: 1.16

Item: COc1cc(/C=C/C(=O)NC(NC(=S)Nc2cccnc2)C2CC2)cc(OC)c1OC (stereo not drawn) [Example 29] | CDI of example compounds and Lapatinib, SK-BR3: 0.98

Item: COc1cc(/C=C/C(=O)NC(CC(C)C)NC(=S)NC2CCCCC2)cc(OC)c1OC (stereo not drawn) [Example 51] | CDI of example compounds and Lapatinib, SK-BR3: 0.96

Item: COc1cc(/C=C/C(=O)NC(NC(=S)Nc2ccccc2C)C(C)(C)C)cc(OC)c1OC (stereo not drawn) [Example 44] | CDI of example compounds and Lapatinib, SK-BR3: 0.96

Item: O=C(/C=C/c1ccccc1)NC(NC(=S)Nc1ccccc1)C1CC1 (stereo not drawn) [Example 41] | CDI of example compounds and Lapatinib, SK-BR3: 1.09

Item: CC(C)C(NC(=O)/C=C/c1ccccc1)NC(=S)NC1CCCCC1 (stereo not drawn) [Example 55] | CDI of example compounds and Lapatinib, SK-BR3: 1.2

Item: Cc1ccccc1NC(=S)NC(CC(C)(C)C)NC(=O)/C=C/c1ccccc1 (stereo not drawn) [Example 46] | CDI of example compounds and Lapatinib, SK-BR3: 1.29

Item: CNC(=S)NC(CC(C)C)NC(=O)/C=C/c1cc(OC)c(OC)c(OC)c1 (stereo not drawn) [Example 43] | CDI of example compounds and Lapatinib, SK-BR3: 1

Item: COc1cc(/C=C/C(=O)NC(NC(=S)Nc2ccccc2)C2CC2)cc(OC)c1OC (stereo not drawn) [Example 28] | CDI of example compounds and Lapatinib, SK-BR3: 1.06
